Reference for the values: patent US20210380548A1

The following compounds are listed with their measured pIC50 values.
# target_under_test: TIP60-KAT5 (Homo sapiens)
# Construct: encoding amino acid residues 2 to 461 (Uniprot Q92993-2) of human KAT5 isoform; made in house; host or cells: E. coli BL21 DE3
# Sequence (Q92993 2-461 isoform Q92993-2): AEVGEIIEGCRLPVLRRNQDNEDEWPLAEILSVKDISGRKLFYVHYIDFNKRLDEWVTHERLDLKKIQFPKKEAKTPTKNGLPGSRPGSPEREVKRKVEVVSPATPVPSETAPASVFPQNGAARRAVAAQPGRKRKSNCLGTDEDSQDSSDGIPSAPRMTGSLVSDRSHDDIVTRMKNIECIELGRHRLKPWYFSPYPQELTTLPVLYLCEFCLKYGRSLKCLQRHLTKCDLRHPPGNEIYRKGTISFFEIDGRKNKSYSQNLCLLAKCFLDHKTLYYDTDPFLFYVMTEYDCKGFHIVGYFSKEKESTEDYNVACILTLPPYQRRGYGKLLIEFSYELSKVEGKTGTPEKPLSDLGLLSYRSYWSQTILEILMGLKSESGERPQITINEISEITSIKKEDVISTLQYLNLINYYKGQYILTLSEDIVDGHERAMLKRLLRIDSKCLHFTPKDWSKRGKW
# measurement_notes: Acetyltransferase biochemical assay (AlphaScreen), KAT5
# details: Table 1 (TIP60-KAT5); 0.4 μM Acetyl coenzyme A, histone H4, 10 nM enzyme
FYI, pIC50 means -log10 of a concentration in mol per litre.

Examples with their reported pIC50 follow.
INSERT INTO assay_data (compound, observed) VALUES
  ('N#Cc1ccccc1CCNC(=O)C1=Nc2ccc(Br)cc2S(=O)(=O)N1', 5.13),
  ('COc1ccccc1C(O)CNC(=O)C1=Nc2ccc(I)cc2S(=O)(=O)N1 (stereo not shown) [Example 94]', 5.55),
  ('O=C(NCCc1ccccc1C(F)(F)F)C1=Nc2ccccc2S(=O)(=O)N1', 4.07),
  ('O=C(NCC(CCO)c1ccccc1)C1=Nc2ccccc2S(=O)(=O)N1 (stereo not shown)', 4.02);

Now consider the entry below.
Can you share its pIC50? I mean this compound: O=C(NCC(c1ccccc1)c1ncco1)C1=Nc2ccc(Br)cc2S(=O)(=O)N1 (single isomer, unassigned) [Example 138] 7.02

* * *

# target_under_test: TIP60-KAT5 (Homo sapiens)
# Construct: encoding amino acid residues 2 to 461 (Uniprot Q92993-2) of human KAT5 isoform; made in house; host or cells: E. coli BL21 DE3
# measurement_notes: Revised Acetyltransferase Biochemical Assay, KAT5
# details: 10 nM KAT5, 1 μM AcCoA, 100 nM histone H4, 90 min
The following compounds are listed with their measured pIC50 values.
FYI, pIC50 means -log10 of a concentration in mol per litre.

INSERT INTO results (compound, measure_name, observed) VALUES
  ('NC(=O)c1ccccc1CCNC(=O)C1=Nc2ccc(I)cc2S(=O)(=O)N1', 'pIC50', 5.31),
  ('COC(=O)c1ccc2c(c1)S(=O)(=O)NC(C(=O)NCC(c1ccccc1)c1ncco1)=N2 (centres unmarked)', 'pIC50', 5.76),
  ('O=C(NCC(c1ccccc1)c1ncco1)C1=Nc2ccc(-c3cn[nH]c3)cc2S(=O)(=O)N1 (centres unmarked)', 'pIC50', 5.23),
  ('CNC(=O)CCCOC(=O)C(CNC(=O)C1=Nc2ccc(I)cc2S(=O)(=O)N1)c1ccccc1 (centres unmarked)', 'pIC50', 6.60),
  ('COc1ccccc1C(CNC(=O)C1=Nc2ccc(I)cc2S(=O)(=O)N1)c1ncco1 (centres unmarked)', 'pIC50', 7.00),
  ('O=C(NCC(c1ccccc1)c1ncco1)C1=Nc2ccc(I)cc2S(=O)(=O)N1 (single isomer, unassigned) [Example 146]', 'pIC50', 7.89),
  ('CN(C)C(=O)c1ccc2c(c1)S(=O)(=O)NC(C(=O)NCC(c1ccccc1)c1ncco1)=N2 (centres unmarked)', 'pIC50', 5.42),
  ('O=C(NCC(c1ccccc1)c1ncco1)C1=Nc2ccc(OC(F)(F)F)cc2S(=O)(=O)N1 (centres unmarked)', 'pIC50', 6.31);

Can you share its pIC50? I mean this compound: O=C(NCC(c1ccccc1)c1ccccn1)C1=Nc2ccc(Br)cc2S(=O)(=O)N1 (centres unmarked) 6.19

Can you share its pIC50? I mean this compound: Cn1cc(-c2ccc3c(c2)S(=O)(=O)NC(C(=O)NCC(c2ccccc2)c2ncco2)=N3)cn1 (centres unmarked) 5.23

Can you share its pIC50? I mean this compound: O=C(NCC(c1ccccc1)c1ncco1)C1=Nc2ccc(-c3cscn3)cc2S(=O)(=O)N1 (centres unmarked) 6.19

Can you share its pIC50? I mean this compound: "O=C(NCCc1ccccc1-c1ncco1)C1=Nc2ccccc2S(=O)(=O)N1" 5.23

Can you share its pIC50? I mean this compound: "O=C(NCCc1ccccc1F)C1=Nc2ccc(Br)cc2S(=O)(=O)N1" 5.18
